Entry source: PubChem BioAssay (NCATS)

- TEST: qHTS of pediatric cancer cell lines to identify multiple opportunities for drug repurposing: Primary screen for LAN-5 cells (AID 1347100)
- STUDY_CONDITIONS: LAN-5 neuroblastoma viability, CellTiter-Glo luminescence, 48 h; series mostly up to 46 µM
Results filed as inconclusive are left out. Calls of active or inactive are those of the source. The call rests on the fitted dose curve; in most records, active means well fitted cell-killing curve with a large enough effect; inconclusive means small, poorly fitted or top-dose-only effect; inactive means no such curve, though single readings can be large or run the other way.
Outcomes: 1 for active, 0 for inactive

molecule=C[C@@H](C1=C(CCN(C)C)Cc2ccccc21)c1ccccn1 label=0
molecule="CC(=O)O[C@@H]1CC2C3CCc4cc(OC(=O)c5ccccc5)ccc4C3CCC2(C)[C@H]1OC(C)=O (stereo not given in full)" label=0
molecule="C[N+]1(CC2COC(c3ccccc3)(c3ccccc3)O2)CCCCC1 (stereo not given)" label=0
molecule="CC(CC(C#N)(c1ccccc1)C(C)C)N(C)C (stereo not given)" label=0
molecule=CCCCCC[C@@H](CCC)C(=O)O label=0
molecule=CCOC(=O)C(=O)CCCCCCl label=0
molecule=c1ccc2c(c1)CCc1ccccc1N2 label=0
molecule=O=C1Nc2cc(Cl)ccc2Oc2ccccc21 label=0
molecule=Cc1nc([N+](=O)[O-])cn1-c1ccc([N+](=O)[O-])cc1 label=0
molecule="CC(NCCC(c1ccccc1)c1ccccc1)c1ccccc1 (stereo not given)" label=1
molecule="CCCCCN(CCCOC)C(=O)C(CCC(=O)O)NC(=O)c1ccc(Cl)c(Cl)c1 (stereo not given)" label=0
molecule=CN1CCCN=C1/C=C/c1cccs1 label=0
molecule=O=C(O)C(=O)Nc1cccc(-c2nn[nH]n2)c1 label=0
molecule=O=C1c2ccccc2CCc2ccccc21 label=0
molecule=O=[N+]([O-])c1cncn1CCN1CCOCC1 label=0
molecule=O=C1NC(c2ccccc2)(c2ccccc2)C(=O)N1COP(=O)(O)O label=0
molecule=O=C(Oc1ccccc1)c1ccccc1O label=0
molecule=CCCc1c2oc(C(=O)O)cc(=O)c2cc2c(=O)cc(C(=O)O)n(CC)c12 label=0
molecule=O=C(O)C1CCC1 label=0
molecule=CC(C)C(C)(C)C(C)(C)C(C)(C)S label=0
